Test system: 377384-186-R-J1-PDC complex spheroid viability;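 also: luminescence signal used as a stand-in for viable cells; spheroids exposed to agents for 7 days before reading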
Experimental Details: Anticancer human tumor 377384-186-R-J1-PDC patient-derived pancreatic carcinoma cell line growth inhibition [CLK]; active = viability on the fitted dose curve at most 10% of control; inactive = the rest
Condition Label: second compound 10 µM; first compound 0.0949 µM
Please answer using one outcome listed in active, inactive

Below are worked cases with known answers.
C=CC(=O)Nc1cc(Nc2nccc(-c3cn(C)c4ccccc34)n2)c(OC)cc1N(C)CCN(C)C + CNC(=O)c1ccc(Nc2nc(OC3CCCC3)c3c(-c4ccc5nc(C)oc5c4)c[nH]c3n2)c(OC)c1; inactive
CC(C)CC(NC(=O)C(Cc1ccccc1)NC(=O)c1cnccn1)B(O)O (stereo not drawn) + CNC(=O)c1ccc(Nc2nc(OC3CCCC3)c3c(-c4ccc5nc(C)oc5c4)c[nH]c3n2)c(OC)c1; active

Call for entry CC(C)CC(NC(=O)C(Cc1ccccc1)NC(=O)c1cnccn1)B(O)O (stereo not drawn) + CN1CCN(c2cc(C(=O)Nc3cc4cc(-c5cnn(C)c5)ccc4cn3)ccn2)CC1 :
active
